The reported measurements were obtained from the RNAGym collection of RNA variant scans (doi:10.7554/elife.90254).

Hi there, I'd appreciate the recorded self-cleavage for every entry that follows.
B1: LINE1-full (parent)
chain: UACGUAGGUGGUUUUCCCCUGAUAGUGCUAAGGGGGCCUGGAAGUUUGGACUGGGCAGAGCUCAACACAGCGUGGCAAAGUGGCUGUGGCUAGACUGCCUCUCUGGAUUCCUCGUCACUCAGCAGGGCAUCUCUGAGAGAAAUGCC

Variants of: B1
Assay: self-cleavage, relative activity (ratio to wild type); higher = more cleavage; in vitro, sequencing; the parent is a self-cleaving ribozyme
Give only the figure.

Exam item: Complete the entry with self-cleavage for A117G U119A
Marked response: 1.17

Exam item: For A2G U130A , write its self-cleavage.
Marked response: 1.72

Exam item: Give reported self-cleavage value for U81G U104C
Marked response: 0.26

Exam item: Let me know recorded self-cleavage for A31C U87A , thanks.
Marked response: 0.07

Exam item: Identify measured self-cleavage associated with U39C U143C
Marked response: 1.33

Exam item: Identify measured self-cleavage corresponding to A30U G40U
Marked response: 0.97

Exam item: Please indicate self-cleavage recorded for A31G G105A
Marked response: 1.29

Exam item: Report measured self-cleavage; entry is U96A A129G
Marked response: 0.07

Exam item: Please report self-cleavage for the following variant: C84U U85C
Marked response: 0

Exam item: Please give measured self-cleavage of the following entry: U109C C128A
Marked response: 1.47

Exam item: Item A2G U20C : provide self-cleavage
Marked response: 0.74

Exam item: Dear colleague, please send me the reported self-cleavage for U91C A121G when you can.
Marked response: 1.29

Exam item: Output measured self-cleavage for this item: C38U G41U
Marked response: 1.21

Exam item: Indicate its recorded self-cleavage; the variant in question is G10A C131U
Marked response: 1.19

Exam item: Please report the measured self-cleavage for A24U C110A
Marked response: 1.1

Exam item: Give the reported value of self-cleavage for this record: U15A C123G
Marked response: 0.92

Exam item: Hello, please tell me recorded self-cleavage for this one: U13C G55A
Marked response: 0.23

Exam item: Determine from records and report self-cleavage for "C99A"
Marked response: 0.4

Exam item: Using the record for C118A U132C , state its measured self-cleavage.
Marked response: 1
